Assay: Distribution in brain after ip administration
Type: in vivo, rat
Conditions: male, Wistar, rat, intraperitoneal; brain, 30 min after administration, mean
measurement.type: concentration at 30 min (ng/g)
Quick note: give the figure in ng/g, leave out the unit.

Look at this compound and give its reported concentration at 30 min. N=C(N)N/N=C/c1c(Cl)cccc1Cl [Guanabenz]
164

Look at this compound and give its reported concentration at 30 min. Cl.N=C(N)NN=Cc1c(Cl)cc(O)cc1Cl [4-OH-Guanabenz]
23.9

====

Assay: Pharmacokinetics in plasma after ip administration
Format: in vivo, rat
Conditions: male, Wistar, rat, plasma, ip
measurement.type: Tmax (min)
Quick note: give the figure in min, leave out the unit.

Look at this compound and give its reported Tmax. N=C(N)N/N=C/c1c(Cl)cccc1Cl [Guanabenz]
30

Look at this compound and give its reported Tmax. Cl.N=C(N)NN=Cc1c(Cl)cc(O)cc1Cl [4-OH-Guanabenz]
15

Cited source for all entries: paper PMC10539439
